Where do the numbers come from? From the supplement of paper PMC9694430.

- Test system: LOC_OS03G50810-cb003;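 also: purified Escherichia coli-expressed rice kinase domain construct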
- Protocol notes: thermal shift delta Tm vs DMSO control; higher = stronger stabilization (binding)
- Protocol conditions: 12.5 µM; protein concentration 2 µM
Attribute: thermal shift delta Tm
Response body: numeric value in °C, unit text excluded.

// below: answered molecules
CCc1cnn2c(NCc3ccc[n+]([O-])c3)cc(N3CCCC[C@H]3CCO)nc12: 0.67
Nc1ccc(C(=O)Nc2cccc(-c3nc(N4CCOCC4)c4oc5ncccc5c4n3)c2)cn1: 0.09
CCCCNc1ncc(-c2ccc(CN3CCOCC3)cn2)c(NC2CCC(O)CC2)n1 (stereo not drawn): 5.33
C1=N/C2=N/c3ccc(OCCN4CCCC4)c(c3)COC/C=C/COCc3cccc(c3)C(=C1)N2 [Pacritinib (SB1518)]: 7.67
Cc1cn(-c2cc(NC(=O)c3ccc(C)c(Nc4nccc(-c5cccnc5)n4)c3)cc(C(F)(F)F)c2)cn1: 0.16
CN1CCN(c2ccc3nc(-c4c(N)c5c(F)cccc5[nH]c4=O)[nH]c3c2)CC1 [Dovitinib (TKI258) Lactate]: 7.48
CN1CCN(c2ccc(-c3ccncc3-c3cc(F)c(O)c(F)c3)cc2)CC1: 0.5

Pending molecule:
Requested read-out: thermal shift delta Tm. Entry: CNC(=O)c1cc(COc2nnc(Nc3ccc(Cl)cc3)c3ccoc23)ccn1
0.38
